- Test system: Vero E6 infected with SARS-CoV-2
- ASSAY INFO: inhibition of SARS-CoV-2 cytopathic effect; higher = more antiviral protection, active = above 15
- RECORDED CONDITIONS: 1 nM; 48 h
REPORTED METRIC: inhibition of SARS-CoV-2 cytopathic effect (%)
// units = %; emit number, no label

Prompt: For "COc1ccc(C2CNC(=O)NC2)cc1O[C@H]1C[C@@H]2CC[C@H]1C2" , write its inhibition of SARS-CoV-2 cytopathic effect.
Completion: -0.64

Prompt: For "NCCS(=O)(=O)O" , write its inhibition of SARS-CoV-2 cytopathic effect.
Completion: -2.1

Prompt: For "Clc1cccc(SC2CCNCC2)n1" , write its inhibition of SARS-CoV-2 cytopathic effect.
Completion: -4.7

Prompt: For "CN1CCc2cc(Cl)c(O)cc2[C@@H](c2ccccc2)C1" , write its inhibition of SARS-CoV-2 cytopathic effect.
Completion: 10.5

Prompt: For "Cc1cc(C)c(N(Cc2ccccc2)S(=O)(=O)c2ccc(OCCNC(=O)c3cc4ccccc4o3)cc2)c(C(=O)NO)c1" , write its inhibition of SARS-CoV-2 cytopathic effect.
Completion: -0.99

Prompt: For "c1ccc2nc(N3CCNCC3)ccc2c1" , write its inhibition of SARS-CoV-2 cytopathic effect.
Completion: 2.16

Prompt: For "CCc1nc2ccc(Cl)cn2c1C(=O)NCc1ccc(N2CCC(c3ccc(OC(F)(F)F)cc3)CC2)cc1" , write its inhibition of SARS-CoV-2 cytopathic effect.
Completion: 0.5

Prompt: For "CCC(=O)O[C@@H]1CC(=O)O[C@H](C)C/C=C/C=C/[C@H](O)[C@H](C)C[C@H](CC=O)[C@H](O[C@@H]2O[C@H](C)[C@@H](O[C@H]3C[C@@](C)(O)[C@@H](OC(=O)CC)[C@H](C)O3)[C@H](N(C)C)[C@H]2O)[C@H]1OC" , write its inhibition of SARS-CoV-2 cytopathic effect.
Completion: -1.27
